This collection of values is drawn from paper PMC6282620.

Listed here are binders together with their documented pKd.
- STUDY TARGET: Plasmodium falciparum Hsp70‐x (full length) (Plasmodium falciparum)
- TEST: SPR; PfHsp70‐x or PfHsp70‐xT immobilised on ProteOn GLC chips, peptides as analytes at 1.25-20 nM, 25°C, PBS‐Tween pH 7.4, with 2 mM ADP
pKd: −log10 of the molar value.

BINDER | pKd
NRNNTG [peptide NRNNTG] | 8.37
NRLLTG [peptide NRLLTG] | 6.21
ALLLMYRR [peptide ALLLMYRR] | 5.55
ANNNMYRR [peptide ANNNMYRR] | 8.66
